Where do the numbers come from? From patent US5438052A.

System: C. freundii 902
Assay: Minimum inhibitory concentration in vitro, agar dilution method
Type: cell-based
Conditions: Citrobacter freundii, 902
Source text: 1. Minimum Inhibitory Concentration in vitro The activities ascertained, minimum inhibitory concentration (MIC) in μg/ml, are compiled in Table 1 hereinafter: […]
Hi there, I'd appreciate the recorded MIC for every entry that follows.

// query MIC value for entry Cc1cc(SCC2=C(C(=O)[O-])N3C(=O)[C@@H](NC(=O)/C(=N\OC(C)(C)C(=O)NNC(=O)c4ccc(O)c(O)c4)c4csc(N)n4)[C@H]3SC2)n2nc(CNS(=O)(=O)c3ccc(O)c(O)c3)nc2n1.[Na+] [Example 42] < 0.1 µg/mL

// query MIC value for entry Cc1cc(SCC2=C(C(=O)[O-])N3C(=O)[C@@H](NC(=O)/C(=N\OCc4ccc(O)c(O)c4)c4csc(N)n4)[C@H]3SC2)n2nc(COC(=O)c3ccc(O)c(O)c3)nc2n1.[Na+] [Example 8] < 0.1 µg/mL

// query MIC value for entry Cc1cc(SCC2=C(C(=O)[O-])N3C(=O)[C@@H](NC(=O)/C(=N\OCS(=O)(=O)c4ccc(O)c(O)c4)c4csc(N)n4)[C@H]3SC2)n2nc(CS(=O)(=O)c3ccc(O)c(O)c3)nc2n1.[Na+] [Example 10] 0.12 µg/mL

// query MIC value for entry Cc1cc(SCC2=C(C(=O)[O-])N3C(=O)[C@@H](NC(=O)/C(=N\OCc4nc(=O)c(O)c[nH]4)c4csc(N)n4)[C@H]3SC2)n2nc(COC(=O)c3ccc(O)c(O)c3)nc2n1.[Na+] [Example 6] < 0.1 µg/mL

// query MIC value for entry Cc1cc(SCC2=C(C(=O)[O-])N3C(=O)[C@@H](NC(=O)/C(=N\OC(C)(C)C(=O)NNC(=O)c4ccc(O)c(O)c4)c4csc(N)n4)[C@H]3SC2)n2nc(CNC(=O)c3ccc(O)c(O)c3)nc2n1.[Na+] [Example 61] < 0.1 µg/mL
